# Assayed System: porcine pancreatic α-amylase (Sus scrofa, UniProt P00690)
# Construct: purchased Sigma-Aldrich
# Sequence (P00690 16-511): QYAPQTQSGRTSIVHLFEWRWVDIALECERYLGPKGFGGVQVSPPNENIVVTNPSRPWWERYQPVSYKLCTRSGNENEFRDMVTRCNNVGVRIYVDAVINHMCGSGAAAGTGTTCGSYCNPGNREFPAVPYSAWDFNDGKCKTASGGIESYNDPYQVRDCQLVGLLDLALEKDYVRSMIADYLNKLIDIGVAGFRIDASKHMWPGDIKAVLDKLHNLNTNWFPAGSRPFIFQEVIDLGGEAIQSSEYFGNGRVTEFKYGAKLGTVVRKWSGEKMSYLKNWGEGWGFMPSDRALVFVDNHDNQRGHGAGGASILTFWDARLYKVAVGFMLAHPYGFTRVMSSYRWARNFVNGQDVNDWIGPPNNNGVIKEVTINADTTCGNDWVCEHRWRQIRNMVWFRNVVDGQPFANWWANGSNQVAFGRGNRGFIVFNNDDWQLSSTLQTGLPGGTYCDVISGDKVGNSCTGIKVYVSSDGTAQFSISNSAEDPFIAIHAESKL
# Method Summary: Kinetic parameters and Lineweaver-Burk analysis, pancreatic α-amylase
# Type: biochemical
# Assay Context: inhibitor concentration: acarbose 387, PPC80 730, PPC82 795, PPC84 870, PPC89 675, PPC101 532 µM; no inhibitor slope 0.59
Measured Metric: Slope (Lineweaver-Burk, pancreatic α-amylase) (min⁻¹)
Give bare numbers, in min⁻¹.

Worked cases, answers included:
CCCCCCCCNC(=O)[C@@H](NC(=O)OC(C)(C)C)[C@@H](C)CC: 0.89
C[C@H]1O[C@H](O[C@H]2[C@H](O)[C@@H](O)[C@@H](O[C@H]3[C@H](O)[C@@H](O)C(O)O[C@@H]3CO)O[C@@H]2CO)[C@H](O)[C@@H](O)[C@@H]1N[C@H]1C=C(CO)[C@@H](O)[C@H](O)[C@H]1O (stereo partly drawn) [Acarbose, acarbose, reference compound]: 0.66
CCCCCCCCCCNC(=O)[C@@H](NC(=O)OC(C)(C)C)[C@@H](C)CC: 0.76
CCCCCCCCCCCCNCCCCNC(=O)[C@@H](NC(=O)OC(C)(C)C)[C@@H](C)CC: 0.70
CC[C@H](C)[C@H](NC(=O)OC(C)(C)C)C(=O)NCCCN: 0.80

Now for another entry.
What the record says about "CCCCCCNC(=O)[C@@H](NC(=O)OC(C)(C)C)[C@@H](C)CC" : Slope (Lineweaver-Burk, pancreatic α-amylase) is 0.72
